Consider the following binders; for each one, report its pEC50.
molecular target: T1, Recombinant His-tagged human CD36.ECD protein (Sino Biological) (human, UniProt P16671 30-439); assay: ELISA, coated human CD36.ECD (FIG. 2D)
T1 construct: Bought protein; also called hCD36.ECD; hCD36; not shown: His tag
T1 sequence (P16671 30-439 limits assumed): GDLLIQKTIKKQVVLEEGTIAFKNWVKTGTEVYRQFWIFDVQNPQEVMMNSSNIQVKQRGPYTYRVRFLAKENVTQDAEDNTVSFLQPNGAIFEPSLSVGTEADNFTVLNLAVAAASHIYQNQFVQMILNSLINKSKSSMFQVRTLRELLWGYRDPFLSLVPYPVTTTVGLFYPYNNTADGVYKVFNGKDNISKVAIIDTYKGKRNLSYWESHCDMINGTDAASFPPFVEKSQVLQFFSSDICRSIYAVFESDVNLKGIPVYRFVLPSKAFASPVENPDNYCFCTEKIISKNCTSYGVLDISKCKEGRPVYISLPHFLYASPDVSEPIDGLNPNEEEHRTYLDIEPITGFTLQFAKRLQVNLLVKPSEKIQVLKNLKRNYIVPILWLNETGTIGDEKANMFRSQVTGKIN
FYI, pEC50 means -log10 of a concentration in mol per litre.

Prompt: Reported pEC50, binder 117_101K (antibody, V domains shown, full-length IgG, human kappa) VH: EVQLVESGGGLVQPGGSLRLSCAASGFTISSFGIHWVRQAPGKGLEWVAWIAPYGGYTYYADSVKGRFTISADTSKNTAYLQMNSLRAEDTAVYYCARSFKGYFDYWGQGTLVTVSS VL: DIQMTQSPSSLSASVGDRVTITCRASQDVSNWVAWYQQKPGKAPKLLISYATSLYSGVPSRFSGSGSGTDFTLTISSLQPEDFATYYCQQHSNAPLTFGQGTKVEIKR : ____
Completion: 8.84

Prompt: Which value of pEC50 has been reported for 117_DA57E (antibody, V domains shown, full-length IgG, human kappa) VH: EVQLVESGGGLVQPGGSLRLSCAASGFTIDAFGIHWVRQAPGKGLEWVAWIAPYGGETYYADSVKGRFTISADTSKNTAYLQMNSLRAEDTAVYYCARSFFGYFDYWGQGTLVTVSS VL: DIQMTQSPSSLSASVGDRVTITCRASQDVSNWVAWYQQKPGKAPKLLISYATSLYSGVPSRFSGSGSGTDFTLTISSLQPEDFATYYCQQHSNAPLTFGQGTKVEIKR in the records?
Completion: 10.27

Prompt: // lookup pEC50 for 117_30DA (antibody, V domains shown, full-length IgG, human kappa) VH: EVQLVESGGGLVQPGGSLRLSCAASGFTIDAFGIHWVRQAPGKGLEWVAWIAPYGGYTYYADSVKGRFTISADTSKNTAYLQMNSLRAEDTAVYYCARSFFGYFDYWGQGTLVTVSS VL: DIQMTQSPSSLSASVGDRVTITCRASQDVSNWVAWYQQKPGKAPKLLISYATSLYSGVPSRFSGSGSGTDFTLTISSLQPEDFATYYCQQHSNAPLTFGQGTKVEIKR
Completion: 10.10
